TARGET UNDER TEST: GRK6(h) (Homo sapiens, UniProt P43250)
Construct: purchased Millipore
Sequence (P43250 whole entry): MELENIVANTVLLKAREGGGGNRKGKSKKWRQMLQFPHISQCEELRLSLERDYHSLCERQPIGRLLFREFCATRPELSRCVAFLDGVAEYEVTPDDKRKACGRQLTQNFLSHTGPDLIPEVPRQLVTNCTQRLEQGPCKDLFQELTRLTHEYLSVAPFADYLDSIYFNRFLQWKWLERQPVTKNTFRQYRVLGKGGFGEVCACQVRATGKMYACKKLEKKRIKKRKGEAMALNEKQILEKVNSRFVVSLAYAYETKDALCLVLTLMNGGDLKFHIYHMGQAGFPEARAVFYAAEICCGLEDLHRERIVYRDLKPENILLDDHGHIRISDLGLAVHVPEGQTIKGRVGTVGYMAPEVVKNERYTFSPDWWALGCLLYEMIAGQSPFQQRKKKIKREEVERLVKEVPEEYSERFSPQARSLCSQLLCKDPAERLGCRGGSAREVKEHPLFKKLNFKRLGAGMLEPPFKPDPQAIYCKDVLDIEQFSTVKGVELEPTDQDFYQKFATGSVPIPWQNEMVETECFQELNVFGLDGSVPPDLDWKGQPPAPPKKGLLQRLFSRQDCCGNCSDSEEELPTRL
RUN DESCRIPTION: Kinase Profiling Assay
Type: biochemical
DETAILS: 100 μM peptide
Record form. Attribute: GRK6(h) % activity. Fill in for each entry.
Answers are plain numbers, in %.

| POLYMER SEQUENCE | GRK6(h) % activity [%] |
| --- | --- |
| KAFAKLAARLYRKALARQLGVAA [MMI-0400] | 141 |
| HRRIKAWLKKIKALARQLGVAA (Mammalian) [MMI-0500] | 174 |
| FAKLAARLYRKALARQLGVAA [MMI-0300] | 147 |

Shift focus to the following entry.
Query: Given the entry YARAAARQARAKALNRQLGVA (Mammalian) [MMI-0200] , what GRK6(h) % activity was observed with GRK6(h) (Homo sapiens, UniProt P43250)?
Result: 132

---

TARGET UNDER TEST: NEK7(h) (Homo sapiens)
Sequence (Q8TDX7 whole entry): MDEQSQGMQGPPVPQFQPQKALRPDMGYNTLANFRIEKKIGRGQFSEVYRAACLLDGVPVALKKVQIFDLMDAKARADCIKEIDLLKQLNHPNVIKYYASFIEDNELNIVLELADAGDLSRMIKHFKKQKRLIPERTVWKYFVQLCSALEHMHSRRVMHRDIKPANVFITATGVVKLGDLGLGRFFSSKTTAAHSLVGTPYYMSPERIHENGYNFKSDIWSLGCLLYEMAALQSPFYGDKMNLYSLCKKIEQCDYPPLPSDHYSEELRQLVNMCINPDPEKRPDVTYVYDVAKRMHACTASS
RUN DESCRIPTION: Kinase Profiling Assay
Assay type: biochemical
DETAILS: 100 μM peptide
Record form. Attribute: NEK7(h) % activity. Fill in for each entry.
Answers are plain numbers, in %.

| POLYMER SEQUENCE | TARGET UNDER TEST | UNIT SYMBOL | NEK7(h) % activity |
| --- | --- | --- | --- |
| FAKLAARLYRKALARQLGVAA [MMI-0300] | NEK7(h) (Homo sapiens) | % | 84 |
| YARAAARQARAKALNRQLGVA (Mammalian) [MMI-0200] | NEK7(h) (Homo sapiens) | % | 96 |
| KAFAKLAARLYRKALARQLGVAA [MMI-0400] | NEK7(h) (Homo sapiens) | % | 87 |

Turning now to a further record.
Query: So what does the record say about NEK7(h) % activity for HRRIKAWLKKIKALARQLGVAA (Mammalian) [MMI-0500] ?
Result: 89

---

TARGET UNDER TEST: PAK2(h) (Homo sapiens, UniProt Q13177)
Sequence (Q13177 whole entry): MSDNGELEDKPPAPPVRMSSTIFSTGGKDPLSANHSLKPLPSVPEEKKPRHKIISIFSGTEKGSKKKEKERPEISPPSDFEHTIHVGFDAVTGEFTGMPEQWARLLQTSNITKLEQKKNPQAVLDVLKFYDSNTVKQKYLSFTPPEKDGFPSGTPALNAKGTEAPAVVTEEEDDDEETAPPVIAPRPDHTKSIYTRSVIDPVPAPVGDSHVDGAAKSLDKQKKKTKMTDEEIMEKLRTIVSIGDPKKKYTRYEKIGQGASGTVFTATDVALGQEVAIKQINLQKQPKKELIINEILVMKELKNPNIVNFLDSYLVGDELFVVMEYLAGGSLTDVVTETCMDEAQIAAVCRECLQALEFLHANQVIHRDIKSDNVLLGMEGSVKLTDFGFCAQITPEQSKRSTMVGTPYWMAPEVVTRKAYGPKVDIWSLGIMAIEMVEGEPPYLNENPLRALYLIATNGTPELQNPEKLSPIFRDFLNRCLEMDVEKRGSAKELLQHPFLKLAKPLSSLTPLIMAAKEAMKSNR
RUN DESCRIPTION: Kinase Profiling Assay
Assay type: biochemical
DETAILS: 100 μM peptide
METRIC: PAK2(h) % activity (%)
One number for each entry, in %.

Consider the following illustrative entries.
| POLYMER SEQUENCE | PAK2(h) % activity / % |
| --- | --- |
| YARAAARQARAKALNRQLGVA (Mammalian) [MMI-0200] | 69 |
| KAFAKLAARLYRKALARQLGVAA [MMI-0400] | 59 |
| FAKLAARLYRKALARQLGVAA [MMI-0300] | 65 |

Attention now shifts to the item below.
Query: What does the record list as PAK2(h) % activity for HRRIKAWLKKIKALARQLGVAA (Mammalian) [MMI-0500] ?
Result: 44

---

I'd appreciate it if you could supply IR(h) % activity values for the items below.
TARGET UNDER TEST: IR(h) (Homo sapiens, UniProt P06213)
Construct: purchased Millipore
RUN DESCRIPTION: Kinase Profiling Assay
Type: biochemical
DETAILS: 100 μM peptide
Numbers only, in %.

Some solved cases for reference:
| POLYMER SEQUENCE | VALUE OBSERVED |
| --- | --- |
| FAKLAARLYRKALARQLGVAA [MMI-0300] | 96 |
| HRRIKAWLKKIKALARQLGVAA (Mammalian) [MMI-0500] | 95 |
| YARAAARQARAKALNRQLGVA (Mammalian) [MMI-0200] | 90 |

Query: # lookup: IR(h) % activity of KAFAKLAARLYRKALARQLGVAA [MMI-0400]
Result: 85

---

For each entry below, report its MELK(h) % activity value.
TARGET UNDER TEST: MELK(h) (Homo sapiens, UniProt Q14680)
Sequence (Q14680 whole entry): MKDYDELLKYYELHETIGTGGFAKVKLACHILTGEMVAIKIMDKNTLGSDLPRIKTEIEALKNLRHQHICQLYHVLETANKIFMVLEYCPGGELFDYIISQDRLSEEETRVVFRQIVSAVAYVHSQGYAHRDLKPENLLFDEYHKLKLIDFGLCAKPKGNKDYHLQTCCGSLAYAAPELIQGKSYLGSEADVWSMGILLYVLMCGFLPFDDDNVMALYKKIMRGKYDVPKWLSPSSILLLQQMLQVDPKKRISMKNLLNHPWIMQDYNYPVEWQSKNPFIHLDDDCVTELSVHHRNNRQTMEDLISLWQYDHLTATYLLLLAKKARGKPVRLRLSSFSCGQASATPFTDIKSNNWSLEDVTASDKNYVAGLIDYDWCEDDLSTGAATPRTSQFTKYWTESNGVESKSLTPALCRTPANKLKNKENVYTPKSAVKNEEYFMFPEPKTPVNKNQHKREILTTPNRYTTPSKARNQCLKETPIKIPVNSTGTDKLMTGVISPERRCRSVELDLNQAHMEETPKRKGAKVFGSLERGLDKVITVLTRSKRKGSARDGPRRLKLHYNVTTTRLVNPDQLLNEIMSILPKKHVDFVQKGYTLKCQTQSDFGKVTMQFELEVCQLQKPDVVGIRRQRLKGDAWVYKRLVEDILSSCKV
RUN DESCRIPTION: Kinase Profiling Assay
Assay type: biochemical
DETAILS: 100 μM peptide
Numbers only, in %.

| POLYMER SEQUENCE | MELK(h) % activity, % |
| --- | --- |
| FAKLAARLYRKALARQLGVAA [MMI-0300] | 16 |
| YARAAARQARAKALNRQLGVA (Mammalian) [MMI-0200] | 59 |
| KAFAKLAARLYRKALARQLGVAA [MMI-0400] | 17 |

// below: MELK(h) % activity requested for another sequence
Query: Report MELK(h) % activity for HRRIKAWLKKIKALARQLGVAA (Mammalian) [MMI-0500] please.
Result: 0

---

Provide the reported CaMKIIδ(h) % activity of each item.
TARGET UNDER TEST: CaMKIIδ(h) (Homo sapiens, UniProt Q13557)
Sequence (Q13557 whole entry): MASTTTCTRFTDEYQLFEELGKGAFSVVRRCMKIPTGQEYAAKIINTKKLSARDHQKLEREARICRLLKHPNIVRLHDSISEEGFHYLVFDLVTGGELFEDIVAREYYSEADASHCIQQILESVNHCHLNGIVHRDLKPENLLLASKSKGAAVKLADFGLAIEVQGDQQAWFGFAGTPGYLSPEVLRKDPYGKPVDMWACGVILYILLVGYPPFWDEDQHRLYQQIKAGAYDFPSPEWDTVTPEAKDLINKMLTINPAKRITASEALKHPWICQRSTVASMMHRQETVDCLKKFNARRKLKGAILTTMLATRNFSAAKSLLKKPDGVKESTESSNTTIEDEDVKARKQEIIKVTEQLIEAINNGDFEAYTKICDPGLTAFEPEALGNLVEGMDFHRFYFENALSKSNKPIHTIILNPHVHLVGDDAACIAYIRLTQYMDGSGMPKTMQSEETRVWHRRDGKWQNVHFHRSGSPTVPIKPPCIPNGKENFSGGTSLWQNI
RUN DESCRIPTION: Kinase Profiling Assay
Type: biochemical
DETAILS: 100 μM peptide
Numbers only, in %.

Worked examples follow.
| POLYMER SEQUENCE | METRIC | UNIT SYMBOL | VALUE OBSERVED |
| --- | --- | --- | --- |
| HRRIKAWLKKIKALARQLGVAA (Mammalian) [MMI-0500] | CaMKIIδ(h) % activity | % | 1 |
| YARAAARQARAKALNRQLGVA (Mammalian) [MMI-0200] | CaMKIIδ(h) % activity | % | 2 |
| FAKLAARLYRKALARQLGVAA [MMI-0300] | CaMKIIδ(h) % activity | % | 1 |

# context switch: different sequence, same CaMKIIδ(h) % activity
Query: For CaMKIIδ(h) (Homo sapiens, UniProt Q13557), provide CaMKIIδ(h) % activity of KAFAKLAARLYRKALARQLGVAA [MMI-0400] please.
Result: 2

---

TARGET UNDER TEST: CDK5/p25(h) (Homo sapiens, UniProt Q00535)
Sequence (Q00535 whole entry): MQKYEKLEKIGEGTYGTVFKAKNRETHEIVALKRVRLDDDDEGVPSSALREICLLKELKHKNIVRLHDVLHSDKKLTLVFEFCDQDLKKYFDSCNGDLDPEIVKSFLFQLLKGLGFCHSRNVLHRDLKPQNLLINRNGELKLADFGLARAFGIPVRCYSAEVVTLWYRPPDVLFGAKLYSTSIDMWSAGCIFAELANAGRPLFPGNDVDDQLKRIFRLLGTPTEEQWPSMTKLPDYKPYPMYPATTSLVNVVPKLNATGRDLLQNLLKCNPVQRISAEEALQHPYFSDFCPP
Sequence (Q15078 99-307 partner limits assumed): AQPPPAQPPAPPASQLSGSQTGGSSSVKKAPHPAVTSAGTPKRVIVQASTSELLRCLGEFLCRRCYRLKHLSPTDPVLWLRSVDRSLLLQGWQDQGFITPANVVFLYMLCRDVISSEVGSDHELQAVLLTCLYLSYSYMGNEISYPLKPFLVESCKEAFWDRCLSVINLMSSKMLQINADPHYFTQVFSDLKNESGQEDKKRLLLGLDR
RUN DESCRIPTION: Kinase Profiling Assay
Assay type: biochemical
DETAILS: 100 μM peptide
METRIC: CDK5/p25(h) % activity
Note: a bare number is incomplete; add the unit.

| POLYMER SEQUENCE | CDK5/p25(h) % activity |
| --- | --- |
| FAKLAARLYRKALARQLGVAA [MMI-0300] | 89% |
| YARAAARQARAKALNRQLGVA (Mammalian) [MMI-0200] | 97% |
| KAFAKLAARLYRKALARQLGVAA [MMI-0400] | 92% |

Now consider the entry below.
Query: Using the record for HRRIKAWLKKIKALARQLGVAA (Mammalian) [MMI-0500] , report its CDK5/p25(h) % activity.
Result: 66%

---

For each entry below, report its Syk(h) % activity value.
TARGET UNDER TEST: Syk(h) (Homo sapiens, UniProt P43405)
RUN DESCRIPTION: Kinase Profiling Assay
Assay type: biochemical
DETAILS: 100 μM peptide
The reply should consist of the numeric value with the unit placed after it.

The examples below pair each entry with its known result.
| POLYMER SEQUENCE | Syk(h) % activity |
| --- | --- |
| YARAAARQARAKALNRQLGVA (Mammalian) [MMI-0200] | 36% |
| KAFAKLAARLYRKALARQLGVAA [MMI-0400] | 9% |
| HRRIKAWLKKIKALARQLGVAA (Mammalian) [MMI-0500] | 5% |

The record that follows has no Syk(h) % activity shown yet.
Query: Name the reported Syk(h) % activity value associated with the sequence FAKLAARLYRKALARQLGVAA [MMI-0300]
Result: 24%

---

TARGET UNDER TEST: CSK(h) (Homo sapiens, UniProt P41240)
Sequence (P41240 whole entry): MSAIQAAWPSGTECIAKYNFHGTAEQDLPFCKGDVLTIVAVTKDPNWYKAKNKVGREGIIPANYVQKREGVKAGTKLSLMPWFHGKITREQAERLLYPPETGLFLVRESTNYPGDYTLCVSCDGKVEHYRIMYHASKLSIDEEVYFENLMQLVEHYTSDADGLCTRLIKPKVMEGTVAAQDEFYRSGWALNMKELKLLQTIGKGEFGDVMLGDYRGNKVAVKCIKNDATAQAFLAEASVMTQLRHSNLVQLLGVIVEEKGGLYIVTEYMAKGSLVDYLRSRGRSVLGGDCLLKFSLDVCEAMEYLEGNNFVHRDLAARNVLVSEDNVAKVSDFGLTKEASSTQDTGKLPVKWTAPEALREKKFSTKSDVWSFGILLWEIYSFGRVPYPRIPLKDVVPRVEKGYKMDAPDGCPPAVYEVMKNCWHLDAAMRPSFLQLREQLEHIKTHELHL
RUN DESCRIPTION: Kinase Profiling Assay
Assay type: biochemical
DETAILS: 100 μM peptide
Description: Every kinase activity measurement was conducted in duplicate. In addition to determining the IC50 of the compound, the specificity of MK2 inhibitory peptides was assessed by examining activities of all 266 human kinases available for testing in the Millipore kinase profiling service (Table 1).
Can you tell me CSK(h) % activity for the items I'm about to list?
Express your answer as a number followed by its unit.

| POLYMER SEQUENCE | CSK(h) % activity |
| --- | --- |
| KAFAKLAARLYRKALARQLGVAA [MMI-0400] | 16% |
| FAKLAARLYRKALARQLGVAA [MMI-0300] | 49% |
| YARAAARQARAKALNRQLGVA (Mammalian) [MMI-0200] | 33% |

Proceed to the following item.
Query: So what's the measured CSK(h) % activity for this one? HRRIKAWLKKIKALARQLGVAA (Mammalian) [MMI-0500]
Result: 2%

---

Exercise: state measured MSK2(h) % activity for each of the sequences provided.
TARGET UNDER TEST: MSK2(h) (Homo sapiens, UniProt O75676)
Sequence (O75676 whole entry): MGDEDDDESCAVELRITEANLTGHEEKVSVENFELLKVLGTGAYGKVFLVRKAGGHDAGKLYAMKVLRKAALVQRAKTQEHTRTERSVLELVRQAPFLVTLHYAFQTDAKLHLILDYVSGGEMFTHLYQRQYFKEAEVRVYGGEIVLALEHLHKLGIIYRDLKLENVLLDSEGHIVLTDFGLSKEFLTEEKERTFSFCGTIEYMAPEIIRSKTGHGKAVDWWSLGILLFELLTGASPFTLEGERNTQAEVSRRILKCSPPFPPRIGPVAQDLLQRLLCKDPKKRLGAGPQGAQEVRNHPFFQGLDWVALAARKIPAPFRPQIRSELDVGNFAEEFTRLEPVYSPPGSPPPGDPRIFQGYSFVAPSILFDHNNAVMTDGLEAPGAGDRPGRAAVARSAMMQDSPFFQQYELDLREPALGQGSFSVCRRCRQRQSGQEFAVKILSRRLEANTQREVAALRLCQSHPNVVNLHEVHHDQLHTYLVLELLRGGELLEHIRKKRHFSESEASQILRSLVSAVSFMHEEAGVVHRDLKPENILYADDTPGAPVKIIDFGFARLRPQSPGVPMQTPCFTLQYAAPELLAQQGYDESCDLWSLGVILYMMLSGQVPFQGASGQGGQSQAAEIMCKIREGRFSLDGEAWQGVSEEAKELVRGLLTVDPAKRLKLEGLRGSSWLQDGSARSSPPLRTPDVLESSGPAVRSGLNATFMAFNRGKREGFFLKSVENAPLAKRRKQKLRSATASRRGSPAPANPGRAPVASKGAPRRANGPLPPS
RUN DESCRIPTION: Kinase Profiling Assay
Assay type: biochemical
DETAILS: 100 μM peptide
Numbers only, in %.

Before answering, review these 3 worked examples.
| POLYMER SEQUENCE | VALUE OBSERVED |
| --- | --- |
| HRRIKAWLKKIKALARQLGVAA (Mammalian) [MMI-0500] | 14 |
| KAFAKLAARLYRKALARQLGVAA [MMI-0400] | 52 |
| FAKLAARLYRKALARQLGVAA [MMI-0300] | 56 |

Query: Form field: reported MSK2(h) % activity of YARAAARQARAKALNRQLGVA (Mammalian) [MMI-0200]
Result: 88

Where these numbers come from: patent US10562947B2
